We begin with a simple list: items and their reported CC50 at 4 days.
Test: Cytotoxicity CC50 (CellTiter-Glo)
Assay type: cell-based
Conditions: human; HepG2.2.15 cells, four days

# compound, CC50 at 4 days
data = [
    ("COc1cc2c(cc1-c1ccc(N3CCC(O)CC3)nc1)CC(C(C)(C)C)n1cc(C(=O)O)c(=O)cc1-2 (stereo not shown)", "> 100 µM"),
    ("CCOC(=O)c1cn2c(cc1=O)-c1cc(OC)c(-c3ccc(=O)n(C(C)(C)C(=O)OCC)c3)cc1CC2C(C)(C)C (stereo not shown)", "50 to 100 µM"),
    ("COc1cc2c(cc1-c1cnn(CC(=O)O)c1)CC(C(C)(C)C)n1cc(C(=O)O)c(=O)cc1-2 (stereo not shown)", "> 100 µM"),
    ("CNc1ncc(-c2cc3c(cc2OC)-c2cc(=O)c(C(=O)O)cn2C(C(C)(C)C)C3)cn1 (stereo not shown)", "50 to 100 µM"),
    ("COc1cc2c(cc1-c1cnn(CCCC(=O)O)c1)CC(C(C)(C)C)n1cc(C(=O)O)c(=O)cc1-2 (stereo not shown)", "50 to 100 µM"),
    ("COc1cc2c(cc1-c1cnc(C)s1)CC(C(C)(C)C)n1cc(C(=O)O)c(=O)cc1-2 (stereo not shown)", "> 100 µM"),
    ("CCOC(=O)CCn1cc(-c2cc3c(cc2OC)-c2cc(=O)c(C(=O)OCC)cn2C(C(C)(C)C)C3)cn1 (stereo not shown)", "50 to 100 µM"),
]
